molecular target: SERCA2a (Sus scrofa, UniProt P11607); construct: Cardiac SR vesicles were isolated from fresh porcine left ventricular tissue using differential centrifugation; from tissue; host or cells: porcine left ventricular tissue (cardiac SR vesicles); assay: Oxalate-supported Fluo-4 Ca2+-uptake (Ca2+-transport) assay in pig cardiac SR (pCSR) vesicles; assay type: biochemical; settings: [Ca2+]MAX (pCa5.4), concentration yielding 10% effect
Sequence (P11607 1-997 isoform P11607-2): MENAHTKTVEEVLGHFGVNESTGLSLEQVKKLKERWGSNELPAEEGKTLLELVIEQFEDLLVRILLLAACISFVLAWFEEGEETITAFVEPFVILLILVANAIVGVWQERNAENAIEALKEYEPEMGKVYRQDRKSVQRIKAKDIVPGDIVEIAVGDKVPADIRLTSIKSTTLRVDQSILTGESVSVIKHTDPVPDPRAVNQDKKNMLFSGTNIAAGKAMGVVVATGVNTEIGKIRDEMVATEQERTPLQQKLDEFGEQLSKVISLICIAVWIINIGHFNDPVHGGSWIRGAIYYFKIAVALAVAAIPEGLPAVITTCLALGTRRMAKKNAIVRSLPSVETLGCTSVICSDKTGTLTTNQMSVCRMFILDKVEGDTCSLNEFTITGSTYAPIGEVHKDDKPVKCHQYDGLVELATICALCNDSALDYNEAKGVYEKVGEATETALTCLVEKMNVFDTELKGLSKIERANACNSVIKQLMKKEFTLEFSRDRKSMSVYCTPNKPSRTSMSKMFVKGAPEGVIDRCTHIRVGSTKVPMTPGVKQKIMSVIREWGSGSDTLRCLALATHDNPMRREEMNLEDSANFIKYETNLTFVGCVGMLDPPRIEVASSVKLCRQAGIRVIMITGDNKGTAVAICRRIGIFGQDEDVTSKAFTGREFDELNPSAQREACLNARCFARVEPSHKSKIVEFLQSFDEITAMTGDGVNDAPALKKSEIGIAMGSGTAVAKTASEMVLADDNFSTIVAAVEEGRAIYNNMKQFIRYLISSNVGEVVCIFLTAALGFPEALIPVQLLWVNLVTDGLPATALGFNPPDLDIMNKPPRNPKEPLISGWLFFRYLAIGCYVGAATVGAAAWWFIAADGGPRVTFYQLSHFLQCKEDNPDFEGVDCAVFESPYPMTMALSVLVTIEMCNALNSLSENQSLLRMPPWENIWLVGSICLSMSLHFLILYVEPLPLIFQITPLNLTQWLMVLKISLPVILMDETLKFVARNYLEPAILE
In this section, each of the compounds is paired with its reported Ca2+-Uptake C10.
recorded endpoint: Ca2+-Uptake C10 (µM)

[[record]]
compound = "CCn1nc(C)c(CN2CCCC(Nc3ccc(C(C)C)cc3)C2)c1C (stereo not shown)"
experimental_system = "SERCA2a (Sus scrofa, UniProt P11607)"
recorded_endpoint = "Ca2+-Uptake C10"
obs_value = 14

[[record]]
compound = "CCC(C)(C)c1nnc(NC(=O)NCc2ccc(F)cc2F)s1"
experimental_system = "SERCA2a (Sus scrofa, UniProt P11607)"
recorded_endpoint = "Ca2+-Uptake C10"
obs_value = 0.9

[[record]]
compound = "OCC1(Cc2ccccc2F)CCCN(Cc2cc3c(cc2Cl)OCO3)C1 (stereo not shown)"
experimental_system = "SERCA2a (Sus scrofa, UniProt P11607)"
recorded_endpoint = "Ca2+-Uptake C10"
obs_value = 0.4

[[record]]
compound = "CCc1cnc(N2CC[C@@H](c3ccc4ccccc4c3)[C@H](O)C2)nc1 (relative stereo)"
experimental_system = "SERCA2a (Sus scrofa, UniProt P11607)"
recorded_endpoint = "Ca2+-Uptake C10"
obs_value = 1.2

